# credit: ChEMBL document CHEMBL4270551

Assay: Selectivity index, ratio of CC50 for rat L6 cells to IC50 for erythrocytic stage of chloroquine and pyrimethamine resistant Plasmodium falciparum K1
Type: toxicity
Settings: read-out: Ratio CC50/IC50
assay_metric: selectivity ratio
// print number alone

The examples below pair each entry with its known result.
Clc1ccc(-c2c[nH]cc2C(c2ccc(Cl)cc2)n2ccnc2)cc1 (stereo not given): 37
FC(F)(F)c1ccc(-c2c[nH]cc2C(c2ccc(Cl)cc2Cl)n2ccnc2)cc1 (stereo not given): 67
Cc1ccc(C(c2ccn(-c3ccc(F)cc3)c2)n2ccnc2)cc1 (stereo not given): 28

For Fc1ccc(C(c2ccn(-c3ccc(Cl)cc3)c2)n2ccnc2)cc1 (stereo not given) , what is its reported selectivity ratio?
16

Given Clc1ccc(C(c2c[nH]cc2-c2cccc3ccccc23)n2ccnc2)c(Cl)c1 (stereo not given) , state its recorded selectivity ratio.
37

* * *

System: Trypanosoma cruzi
Assay: Antitrypanosomal activity against Trypanosoma cruzi Tulahuen strain C2C4 amastigote forms infected in rat L6 cells after 96 hrs by CPRG/Nonidet reagent based photometric method
Type: functional, organism-based
Settings: Tulahuen strain C2C4, L6, 96 h
assay_metric: pIC50
Friendly reminder that pIC50 comes from taking -log10 of the concentration in mol/L.

Clc1ccc(C(c2c[nH]cc2-c2ccc(-c3ccccc3)cc2)n2ccnc2)c(Cl)c1 (stereo not given): 4.49
Fc1ccc(-n2ccc(C(c3ccc(Cl)cc3)n3ccnc3)c2)cc1 (stereo not given): 5.48

Report pIC50 for Clc1ccc(C(c2c[nH]cc2-c2ccc(-c3ccncc3)cc2)n2ccnc2)c(Cl)c1 (stereo not given) tested on Trypanosoma cruzi.
5.62

For the record Clc1ccc(-c2c[nH]cc2C(c2ccc(Cl)cc2Cl)n2ccnc2)cc1 (stereo not given) , what value of pIC50 is listed for Trypanosoma cruzi?
7.46

Missing value: pIC50, Trypanosoma cruzi, entry Clc1ccc(-c2c[nH]cc2C(c2ccc(Cl)cc2Cl)n2ccnc2)c(Cl)c1 (stereo not given) . Fill in?
7.47

* * *

A collection of compounds and their measured pIC50
System: Plasmodium falciparum
Experiment: Antiprotozoal activity against erythrocytic stage of chloroquine and pyrimethamine resistant Plasmodium falciparum K1 assessed as reduction in [3H]-hypoxanthine incorporation preincubated for 24 hrs followed by [3H]-hypoxanthine addition measured after 24 hrs by scintillation counting method
Assay type: functional, organism-based
# reply with the number alone; pIC50 is -log10 of concentration in mol/L

Use the examples below as a reference point.
CC(C)(C)c1ccc(-c2c[nH]cc2C(c2ccc(Cl)cc2Cl)n2ccnc2)cc1 (stereo not given): 6.42
Clc1ccc(C(c2c[nH]cc2-c2ccc(Cl)c(Cl)c2)n2ccnc2)c(Cl)c1 (stereo not given): 6.85
Cn1cc(-c2ccc(Cl)cc2)c(C(c2ccc(Cl)cc2Cl)n2ccnc2)c1 (stereo not given): 6.77
Fc1ccc(-n2ccc(C(c3ccccc3)n3ccnc3)c2)cc1 (stereo not given): 5.27
Clc1ccc(-c2c[nH]cc2C(c2ccc(Cl)cc2)n2ccnc2)cc1 (stereo not given): 6.89
N#Cc1ccc(-c2c[nH]cc2C(c2ccc(Cl)cc2Cl)n2ccnc2)cc1 (stereo not given): 6.18
Clc1ccc(C(c2c[nH]cc2-c2cccc3ccccc23)n2ccnc2)c(Cl)c1 (stereo not given): 6.48
c1ccc(C(c2ccn(-c3ccccc3)c2)n2ccnc2)cc1 (stereo not given): 5.38

Now let's try a different one.
GET /values?readout=pIC50&item= Clc1ccc(C(c2c[nH]cc2-c2ccc(-c3ccncc3)cc2)n2ccnc2)c(Cl)c1 (stereo not given)
6.54
